System: Ruminococcus gnavus DSM 108212
Measurement protocol: growth (OD595) fold change vs plate DMSO controls (fold change (ratio)); higher = more growth
Cond: incubation time: 27 h, anaerobic, 37 °C
Counter-ions that a name gives are not always drawn.
label 1 means recorded growth is 1 or above; label 0 means it is below 1.

>>> print(df.to_string())
                                    compound  group_label
 0  CN1CCc2c(c3ccccc3n2Cc2ccccc2)C1 [Mebhydroline 1,5-naphtalenedisulfonate] (20 µM)      label 0
 1  Nc1ccc(S(=O)(=O)Nc2ccnn2-c2ccccc2)cc1 [Sulfaphenazole] (20 µM)      label 1
 2  COC(=O)Nc1nc2cc(C(=O)c3cccs3)ccc2[nH]1 [Nocodazole] (20 µM)      label 1
 3  Nc1cc(-c2ccncc2)c[nH]c1=O [Amrinone] (20 µM)      label 1
 4  CCc1oc2ccccc2c1C(=O)c1cc(Br)c(O)c(Br)c1 [Benzbromarone] (20 µM)      label 0
 5  COc1c(-c2ccc3cc(NS(C)(=O)=O)ccc3c2)cc(-n2ccc(=O)[nH]c2=O)cc1C(C)(C)C [Dasabuvir] (20 µM)      label 0
 6   CCCC(CCC)C(=O)O [Valproic acid] (20 µM)      label 0
 7  COc1ccc(-c2ccc3cc(C(=O)O)ccc3c2)cc1C12CC3CC(CC(C3)C1)C2 [Adapalene] (20 µM)      label 1
 8  CC(C(=O)O)c1ccc(CC2CCCC2=O)cc1 (configuration not stated) [Loxoprofen] (20 µM)      label 1
 9  Nc1nc2c(ncn2COCCO)c(=O)[nH]1 [Acyclovir] (20 µM)      label 1
10  CC(=O)[C@@]1(O)CC[C@H]2[C@@H]3C[C@H](C)C4=CC(=O)C=C[C@]4(C)[C@@]3(F)[C@@H](O)C[C@@]21C [Fluorometholone] (20 µM)      label 1
11  NS(=O)(=O)c1cc(C(=O)NN2C[C@@H]3[C@H]4CC[C@H](C4)[C@@H]3C2)ccc1Cl [Tripamide] (20 µM)      label 1
12  CNC1(C)C2CCC(C2)C1(C)C (configuration not stated) [Mecamylamine hydrochloride] (20 µM)      label 1

====

System: Klebsiella aerogenes DSM 30053
Measurement protocol: fold change of Histamine concentration vs plate DMSO controls (fold change (ratio)); higher = more amine produced, active = hit call of the paper (significant change in both replicates, either direction)
Cond: incubation time: 27 h, anaerobic, 37 °C
Where a name gives a salt, the structure may show the parent alone.
Reported fold change of Histamine concentration values are given for each entry in this list.
Measured attribute: fold change of Histamine concentration

>>> df
                                   compound                      measured_attribute  assay_value
0  O=c1[nH]c(=O)n([C@H]2C[C@H](O)[C@@H](CO)O2)cc1C(F)(F)F [Trifluridine] (20 µM)  fold change of Histamine concentration         1.09
1  c1ccc2c(c1)-c1cccc3c1c-2cc1ccccc13 [Benzo[b]fluoranthene] (20 µM)  fold change of Histamine concentration        0.993
2  Clc1ccc2c(c1)C(N1CCNCC1)=Nc1ccccc1O2 [Amoxapine] (20 µM)  fold change of Histamine concentration        0.961
3  CCOc1cc(CC(=O)N[C@@H](CC(C)C)c2ccccc2N2CCCCC2)ccc1C(=O)O [Repaglinide] (20 µM)  fold change of Histamine concentration        0.982
4  C/C(O)=C(\C#N)C(=O)Nc1ccc(C(F)(F)F)cc1 [Teriflunomide] (20 µM)  fold change of Histamine concentration         1.01
5  CC(C)(C)NC[C@H](O)COc1cccc2c1CCCC2=O [(-) Levobunolol hydrochloride] (20 µM)  fold change of Histamine concentration         1.06
6  CCOc1ccccc1OC(c1ccccc1)C1CNCCO1 (stereo not drawn) [Reboxetine mesylate] (20 µM)  fold change of Histamine concentration         1.01
7  CCOc1nc2cccc(C(=O)O)c2n1Cc1ccc(-c2ccccc2-c2nnn[nH]2)cc1 [Candesartan] (20 µM)  fold change of Histamine concentration        0.965

====

Quick reference for fold change of Histamine concentration among some compounds
Test system: Klebsiella aerogenes DSM 30053
Measurement protocol: fold change of Histamine concentration vs plate DMSO controls (fold change (ratio)); higher = more amine produced, active = hit call of the paper (significant change in both replicates, either direction)
Cond: incubation time: 27 h, anaerobic, 37 °C
Counter-ions that a name gives are not always drawn.

Compound	fold change of Histamine concentration
CC(=O)Nc1ccccc1 [Acetanilide] (20 µM)	1.01
Clc1ccc(C(Cn2ccnc2)OCc2c(Cl)cccc2Cl)c(Cl)c1 (stereo unspecified) [Isoconazole] (20 µM)	1
Cc1cc(C2CCCCC2)n(O)c(=O)c1 [Ciclopirox ethanolamine] (20 µM)	0.978
Nc1cccc2c1C(=O)N(C1CCC(=O)NC1=O)C2=O (stereo unspecified) [Pomalidomide] (20 µM)	1.13
C[C@H]1O[C@H](O[C@H]2[C@H](O)[C@@H](O)[C@@H](O[C@@H]([C@H](O)[C@@H](O)C=O)[C@H](O)CO)O[C@@H]2CO)[C@H](O)[C@@H](O)[C@@H]1N[C@H]1C=C(CO)[C@@H](O)[C@H](O)[C@H]1O [Acarbose] (20 µM)	1.15
Nc1nc2ccc(OC(F)(F)F)cc2s1 [Riluzole hydrochloride] (20 µM)	1.08
Cc1ccc2c([nH]c(=O)c3c(=O)cc(C(=O)OCCC(C)C)oc32)c1C [Repirinast] (20 µM)	1.03
CCCCN(CCCC)CCCOC(=O)c1ccc(N)cc1 [Butacaine] (20 µM)	1.03
Nc1ncnc2c1ncn2C1OC(COP(=O)(O)O)C(O)C1O (stereo unspecified) [Adenosine 5'-monophosphate monohydrate] (20 µM)	1.07
O=C(O)CNC(=O)C(CS)Cc1ccccc1 (stereo unspecified) [Thiorphan] (20 µM)	0.964
CC(C)(C)CC(C)(C)c1ccc(OCCOCC[N+](C)(C)Cc2ccccc2)cc1 [Benzethonium chloride] (20 µM)	1.07
OC(CCN1CCCCC1)(c1ccccc1)c1ccccc1 [Pridinol methanesulfonate salt] (20 µM)	1.05
NNCCc1ccccc1 [Phenelzine sulfate] (20 µM)	1.05
CCCC1O[C@@H]2C[C@H]3[C@@H]4CCC5=CC(=O)C=C[C@]5(C)[C@H]4[C@@H](O)C[C@]3(C)[C@]2(C(=O)CO)O1 (stereo partly specified) [Budesonide] (20 µM)	1.06
C#C[C@]1(OC(C)=O)CC[C@H]2[C@@H]3CCC4=CC(=NO)CC[C@@H]4[C@H]3CC[C@@]21CC (mixture of isomers) [Norgestimate] (20 µM)	1.01
NC(=O)c1cnccn1 [Pyrazinamide] (20 µM)	0.957

====

In this section, each of the compounds is paired with its reported fold change of Tryptamine concentration.
Tested on: Ruminococcus gnavus DSM 108212
Measurement protocol: fold change of Tryptamine concentration vs plate DMSO controls (fold change (ratio)); higher = more amine produced, active = hit call of the paper (significant change in both replicates, either direction)
Cond: incubation time: 27 h, anaerobic, 37 °C
Where a name gives a salt, the structure may show the parent alone.

Compound	fold change of Tryptamine concentration
NC(CO)C(=O)NNCc1ccc(O)c(O)c1O (stereo not given) [Benserazide hydrochloride] (20 µM)	1.03
CCCCCCCC/C=C\CCCCCCCCCCCC(=O)O [Erucic acid] (20 µM)	0.851
C=C1C[C@@]23CC[C@H]4[C@@](C)(CCC[C@@]4(C)C(=O)O[C@@H]4O[C@H](CO)[C@@H](O)[C@H](O)[C@H]4O)[C@@H]2CC[C@]1(O[C@@H]1O[C@H](CO)[C@@H](O)[C@H](O)[C@H]1O[C@@H]1O[C@H](CO)[C@@H](O)[C@H](O)[C@H]1O)C3 [Stevioside] (50 µM)	0.947
CC[C@H]1OC(=O)[C@H](C)[C@@H](O[C@H]2C[C@@](C)(OC)[C@@H](O)[C@H](C)O2)[C@H](C)[C@@H](O[C@@H]2O[C@H](C)C[C@H](N(C)C)[C@H]2O)[C@](C)(O)C[C@@H](C)[C@@H]2N[C@@H](COCCOC)O[C@H]([C@H]2C)[C@]1(C)O [Dirithromycin] (20 µM)	0.134
Clc1ccc(COC(Cn2ccnc2)c2ccc(Cl)cc2Cl)c(Cl)c1 (stereo not given) [Miconazole] (20 µM)	0.257

====

Consider the following compounds and their measured fold change of Putrescine concentration readings.
System: Escherichia coli IAI1
Measurement protocol: fold change of Putrescine concentration vs plate DMSO controls (fold change (ratio)); higher = more amine produced, active = hit call of the paper (significant change in both replicates, either direction)
Cond: incubation time: 27 h, anaerobic, 37 °C
Where a name gives a salt, the structure may show the parent alone.
Measured attribute: fold change of Putrescine concentration

>>> print(df.to_string())
                                   compound  assay_value
0  c1ccc([C@H]2CN3CCSC3=N2)cc1 [Levamisole hydrochloride] (20 µM)        0.967
1  Cc1nnc(SCC2=C(C(=O)O)N3C(=O)[C@@H](NC(=O)Cn4cnnn4)[C@H]3SC2)s1 [Cefazolin sodium salt] (20 µM)         0.16
2  CN(C)CCCOc1nn(Cc2ccccc2)c2ccccc12 [Benzydamine hydrochloride] (20 µM)        0.983
3  N[C@@H](Cc1cc(I)c(Oc2cc(I)c(O)c(I)c2)c(I)c1)C(=O)O [(L) Thyroxine] (20 µM)         1.01
4  CN(C)CCc1c[nH]c2ccc(Cn3cncn3)cc12 [Rizatriptan benzoate] (20 µM)         0.97
5  COC1=C(OC)C(=O)C(CCCCCCCCCCO)=C(C)C1=O [Idebenone] (20 µM)        0.947
6  O=C1CC2(CCCC2)CC(=O)N1CCCCN1CCN(c2ncccn2)CC1 [Buspirone hydrochloride] (20 µM)         1.02
7  Cn1cnc([N+](=O)[O-])c1Sc1ncnc2[nH]cnc12 [Azathioprine] (20 µM)        0.977
